- PROCEDURE_SUMMARY: inhibition of 3D7 malaria parasite growth – strain 3D7 (AID 2306);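 also: 0% = DMSO wells and 100% = chloroquine plus artemisinin control wells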
- CONDITION_LABEL: P. falciparum 3D7 erythrocytic growth, LDH absorbance, 72 h; at 2 µM; active compounds read high
Entries and their growth inhibition values follow.
Provide only the numeric value, understood in %.

Known growth inhibition results, listed for orientation:
COc1ccc(CNc2nc(NCc3ccccc3)c3cc(OC)c(OC)cc3n2)cc1OC | 103
CN1CCCN(Cc2cccc(-c3ccc(CNC(=O)c4cccc(Cl)c4)c(F)c3)c2)CC1 | 96
CCc1cc(Br)c(CNCCCNc2cc(=O)c3ccccc3[nH]2)s1 | 90
CC(C)CC(=O)NC1CCN(Cc2c(-c3cccs3)nc3ccccc3c2C(=O)N[C@@H](C)C2CCCCC2)CC1 | 96

Q: Reported growth inhibition for CO/C(=C\C=C\c1cc2cc(Cl)c(Cl)cc2[nH]1)C(=O)NCC(C)(C)CN(C)C : what is it?
Result: 81
